Tested on: NCI-H226 lung
Assay: NCI tumour cell line growth inhibition, 48 h; in the data active = GI50 below about 0.43 µM; inactive = the rest
Your reply should match one of these outcome classes. active, inactive

compound: COc1ccc(OC)c(Cn2cc3c(c2)-c2oncc2CC3)c1
target_of_assay: NCI-H226 lung
cat: inactive

Ask: Call for entry COc1ccc(OC)c(C2SCC(=O)N2NC(=O)C(O)c2ccccc2)c1 (stereo not drawn) :
Result: inactive

Ask: Test call for this compound, please: Cc1c(C2=C(c3cn(C)c4ccccc34)C(=O)NC2=O)c2ccccc2n1C
Result: inactive

Ask: Returns: the outcome recorded for CC(C)(C)CN1CCn2c(nc3c(N)nccc32)S1 in this assay.
Result: inactive

Ask: Which outcome was entered for the compound Nc1ccc(-c2nc3ccccc3[nH]2)c2ccccc12 in this test?
Result: inactive

Ask: What did the test return for CC(C)(C)c1ccc(C(=O)Nc2sc3c(c2C(N)=O)CCC(=O)C3)cc1 ?
Result: inactive

Ask: Dear colleague, could you share the recorded outcome for CCN1C(=O)N(CC)C2C1NN=c1s/c(=C\c3ccccc3Br)c(=O)n12 (stereo not drawn) when you have a moment?
Result: active

Ask: Give the logged outcome of this assay for the following compound: CC1OC(O[C@H]2/C=C/C=C/C=C/C=C/C=C/C=C/C=C/[C@H](C)[C@@H](O)[C@@H](C)[C@H](C)OC(=O)CC(O)CC(O)CCC(O)C(O)CC(O)C[C@]3(O)C[C@H](O)C(C(=O)O)C(C2)O3)C(O)[C@H](N)C1O (stereo partly drawn)
Result: inactive

###

Give TGI for every item shown.
Tested on: MDA-N
Test: NCI tumour cell line growth inhibition, 48 h

item_smiles: CCOc1ccc(-n2nnc3c(N)nc(N)nc32)cc1
reported_value: > 100 µM
//
item_smiles: O=[As](O)(O)c1ccc(N=Nc2ccc(O)cc2)cc1
reported_value: > 100 µM
//
item_smiles: CSC(=S)N/N=C(\C)c1cccc(C)n1
reported_value: > 90 µM
//
item_smiles: Cc1ccc(NC(=O)c2ccccc2C(=O)O)cc1C
reported_value: > 100 µM

Now for another entry.
Ask: Item CN(CC(N)=O)C(=O)N(CCCl)N=O has what recorded TGI?
Result: > 100 µM

###

System: OVCAR-3 ovarian
Test: NCI tumour cell line growth inhibition, 48 h
parameter: TGI (nM)
Numbers only, in nM.

Below are worked cases with known answers.
compound: COc1cc2c(c(OC)c1OC)-c1ccc(SC)c(=O)cc1[C@@H](NC1OC(CO)C(O)C(O)C1O)CC2 (some centres not stated)
TGI / nM: 76.2
--
compound: CCC1(O)C(=O)OCc2c1cc1n(c2=O)Cc2cc3cc(N)ccc3nc2-1 (configuration not stated)
TGI / nM: 469

Ask: GET /values?readout=TGI&system=OVCAR-3 ovarian&item= COc1ccc(C2[C@@H](Cl)C(=O)N2c2cc(OC)c(OC)c(OC)c2)cc1Cl (some centres not stated)
Result: 576

###

System: HCC-2998 colon
Experiment: NCI tumour cell line growth inhibition, 48 h
I'd be grateful if you could share measured TGI for these entries.

compound: COc1ccc2c(c1)OC1=C(C(=O)OC1)C2c1cc(OC)c2c(c1)OCO2 (stereo not drawn)
TGI: > 35.1 µM

compound: COc1ccc(N=C2C(=Nc3ccc(OC)cc3)N(c3ccccc3)C(=S)N2N=C=C2Sc3ccccc3N2C)cc1
TGI: > 100 µM

compound: CCN1C(=O)N(CC)C2C1NN=c1s/c(=C3\C(=O)N(CCc4ccccc4)c4ccccc43)c(=O)n12 (stereo not drawn)
TGI: > 25 µM

compound: CCOC(=O)[C@H](Cc1ccc(O)cc1)N=C1[C@H]2CCC[C@]1(O)[C@@](C)([N+](=O)[O-])C2
TGI: > 100 µM

compound: CC1=NN(C(=O)CSc2nc3ccc(I)cc3c(=O)n2Cc2ccccc2)C(=O)C1
TGI: > 100 µM

Give TGI for each of the items listed below.
1. CC1(O)OC(=O)C2=C1CCC1C2CCC2(C)C(O)CCC12 (stereo not drawn)
2. O=C1NC(=O)C(c2cccc(Cl)c2)=C1Nc1ccc(O)c(Cl)c1
3. O=C([CH-]C(=O)c1ccccc1)c1ccccc1.O=C([CH-]C(=O)c1ccccc1)c1ccccc1.[OH-].[OH-].[Ti+4]
4. COC(=O)CC1NC(=O)C1C1(C)OCCO1 (stereo not drawn)

Result:
["> 100 µM", "> 25 µM", "> 100 µM", "> 100 µM"]

Reference source: PubChem BioAssay (NCI)
